Exercise: for every item that follows, state its recorded viability, T/C.
Tested on: ASPS-1 complex tumor spheroids, viability
Test: Anticancer human tumor ASPS-1 cell line growth inhibition;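 note: spheroids exposed to agents for 7 days after 3 days of growth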;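 for viability, T/C: 100% = DMSO vehicle treated spheroids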
Conditions: second compound 100 µM; first compound 3.16 µM; stronger effect = lower value

molecule="COc1cc(C)[nH]c(=O)c1CN1CCc2c(Cl)cc(C(OC)C3COC3)c(Cl)c2C1=O (stereo unspecified) + Cn1nnc2c(C(N)=O)ncn2c1=O" assay_value=69%
molecule="[2H]c1nc(C)nc([2H])c1-c1cc(NC[C@@H](C)c2cccc3c(C(=O)NC)ccnc23)ncn1 + Cn1nnc2c(C(N)=O)ncn2c1=O" assay_value=68.4%

I have 4 molecules here; please give me viability, T/C for each one.
1. CC(C)n1c(=O)n(C)c2cnc3cc(F)c(-c4ccc(OCCCN5CCCCC5)nc4)cc3c21 + Cn1nnc2c(C(N)=O)ncn2c1=O
2. CC1COCCN1c1cc(-c2ccnn2C)c2ccnc(-c3ccn[nH]3)c2n1 (stereo unspecified) + Cn1nnc2c(C(N)=O)ncn2c1=O
3. COc1ccc([C@@H](O)c2cc(-c3ncnc4cc(N5CCOCC5)ccc34)c(F)cc2Cl)nn1 + Cn1nnc2c(C(N)=O)ncn2c1=O
4. Cc1cc(C)c(CNC(=O)c2cc(-c3ccc(CN4CCOCC4)cc3)cc3c2cnn3C2CCCC2)c(=O)[nH]1 + Cn1nnc2c(C(N)=O)ncn2c1=O

Output line:
1. 24.4%
2. 29.6%
3. 44.5%
4. 61.3%

----------
Exercise: for every item that follows, state its recorded viability, T/C.
Tested on: ASPS-1 complex tumor spheroids, viability
Assay: Anticancer human tumor ASPS-1 cell line growth inhibition;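 note: spheroids exposed to agents for 7 days after 3 days of growth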;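 for viability, T/C: 100% = DMSO vehicle treated spheroids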
Settings: second compound 0.0949 µM; first compound 0.316 µM; stronger effect = lower value

compound="COc1cc(C)[nH]c(=O)c1CN1CCc2c(Cl)cc(C(OC)C3COC3)c(Cl)c2C1=O (stereo unspecified) + CC[C@@]1(O)C(=O)OCc2c1cc1n(c2=O)Cc2cc3c(CN(C)C)c(O)ccc3nc2-1" target_or_test_system="ASPS-1 complex tumor spheroids, viability" assay_value=60.2%
compound="[2H]c1nc(C)nc([2H])c1-c1cc(NC[C@@H](C)c2cccc3c(C(=O)NC)ccnc23)ncn1 + CC[C@@]1(O)C(=O)OCc2c1cc1n(c2=O)Cc2cc3c(CN(C)C)c(O)ccc3nc2-1" target_or_test_system="ASPS-1 complex tumor spheroids, viability" assay_value=67.8%
compound="COc1ccc([C@@H](O)c2cc(-c3ncnc4cc(N5CCOCC5)ccc34)c(F)cc2Cl)nn1 + CC[C@@]1(O)C(=O)OCc2c1cc1n(c2=O)Cc2cc3c(CN(C)C)c(O)ccc3nc2-1" target_or_test_system="ASPS-1 complex tumor spheroids, viability" assay_value=50.6%
compound="Cc1cc(C)c(CNC(=O)c2cc(-c3ccc(CN4CCOCC4)cc3)cc3c2cnn3C2CCCC2)c(=O)[nH]1 + CC[C@@]1(O)C(=O)OCc2c1cc1n(c2=O)Cc2cc3c(CN(C)C)c(O)ccc3nc2-1" target_or_test_system="ASPS-1 complex tumor spheroids, viability" assay_value=52.3%
compound="CC(C)n1c(=O)n(C)c2cnc3cc(F)c(-c4ccc(OCCCN5CCCCC5)nc4)cc3c21 + CC[C@@]1(O)C(=O)OCc2c1cc1n(c2=O)Cc2cc3c(CN(C)C)c(O)ccc3nc2-1" target_or_test_system="ASPS-1 complex tumor spheroids, viability" assay_value=41.8%

Now look at this one.
Sure, the documented viability, T/C for CC1COCCN1c1cc(-c2ccnn2C)c2ccnc(-c3ccn[nH]3)c2n1 (stereo unspecified) + CC[C@@]1(O)C(=O)OCc2c1cc1n(c2=O)Cc2cc3c(CN(C)C)c(O)ccc3nc2-1 is 28.7%

----------
Exercise: for every item that follows, state its recorded IC50.
Test system: ASPS-1 complex tumor spheroids, viability
Test: Anticancer human tumor ASPS-1 cell line growth inhibition;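 note: spheroids exposed to agents for 7 days after 3 days of growth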
Conditions: curve of first compound; second compound 0.000949 µM

molecule="Cn1ncnc1[C@H]1c2n[nH]c(=O)c3cc(F)cc(c23)N[C@@H]1c1ccc(F)cc1 + COc1cc2c(cc1O)CCNC21CSC2c3c(OC(C)=O)c(C)c4c(c3C(COC1=O)N1C(O)C3Cc5cc(C)c(OC)c(O)c5C(C21)N3C)OCO4" assay_value="562 nM"
molecule="Cc1cc(C)c(CNC(=O)c2cc(-c3ccc(CN4CCOCC4)cc3)cc3c2cnn3C2CCCC2)c(=O)[nH]1 + COc1cc2c(cc1O)CCNC21CSC2c3c(OC(C)=O)c(C)c4c(c3C(COC1=O)N1C(O)C3Cc5cc(C)c(OC)c(O)c5C(C21)N3C)OCO4" assay_value="273 nM"
molecule="[2H]c1nc(C)nc([2H])c1-c1cc(NC[C@@H](C)c2cccc3c(C(=O)NC)ccnc23)ncn1 + COc1cc2c(cc1O)CCNC21CSC2c3c(OC(C)=O)c(C)c4c(c3C(COC1=O)N1C(O)C3Cc5cc(C)c(OC)c(O)c5C(C21)N3C)OCO4" assay_value="6590 nM"

I have 7 molecules here; please give me IC50 for each one.
1. CC1COCCN1c1cc(-c2ccnn2C)c2ccnc(-c3ccn[nH]3)c2n1 (stereo not given) + COc1cc2c(cc1O)CCNC21CSC2c3c(OC(C)=O)c(C)c4c(c3C(COC1=O)N1C(O)C3Cc5cc(C)c(OC)c(O)c5C(C21)N3C)OCO4
2. COc1cc(C)[nH]c(=O)c1CN1CCc2c(Cl)cc(C(OC)C3COC3)c(Cl)c2C1=O (stereo not given) + COc1cc2c(cc1O)CCNC21CSC2c3c(OC(C)=O)c(C)c4c(c3C(COC1=O)N1C(O)C3Cc5cc(C)c(OC)c(O)c5C(C21)N3C)OCO4
3. CC(C)n1c(=O)n(C)c2cnc3cc(F)c(-c4ccc(OCCCN5CCCCC5)nc4)cc3c21 + COc1cc2c(cc1O)CCNC21CSC2c3c(OC(C)=O)c(C)c4c(c3C(COC1=O)N1C(O)C3Cc5cc(C)c(OC)c(O)c5C(C21)N3C)OCO4
4. Cc1sc2c(c1C)C(c1ccc(Cl)cc1)=NC(CC(=O)Nc1ccc(O)cc1)c1nnc(C)n1-2 (stereo not given) + COc1cc2c(cc1O)CCNC21CSC2c3c(OC(C)=O)c(C)c4c(c3C(COC1=O)N1C(O)C3Cc5cc(C)c(OC)c(O)c5C(C21)N3C)OCO4
5. CNCc1ccc(-c2cc(-c3nc(-c4ccc(S(=O)(=O)C(C)C)cc4)cnc3N)on2)cc1 + COc1cc2c(cc1O)CCNC21CSC2c3c(OC(C)=O)c(C)c4c(c3C(COC1=O)N1C(O)C3Cc5cc(C)c(OC)c(O)c5C(C21)N3C)OCO4
6. COc1ccc([C@@H](O)c2cc(-c3ncnc4cc(N5CCOCC5)ccc34)c(F)cc2Cl)nn1 + COc1cc2c(cc1O)CCNC21CSC2c3c(OC(C)=O)c(C)c4c(c3C(COC1=O)N1C(O)C3Cc5cc(C)c(OC)c(O)c5C(C21)N3C)OCO4
7. O=C(c1cc(Cc2n[nH]c(=O)c3ccccc23)ccc1F)N1CCN(C(=O)C2CC2)CC1 + COc1cc2c(cc1O)CCNC21CSC2c3c(OC(C)=O)c(C)c4c(c3C(COC1=O)N1C(O)C3Cc5cc(C)c(OC)c(O)c5C(C21)N3C)OCO4

Output line:
1. < 31.6 nM
2. > 10000 nM
3. < 31.6 nM
4. 772 nM
5. 185 nM
6. 379 nM
7. 2080 nM

----------
Tested on: ASPS-1 complex tumor spheroids, viability
Experiment: Anticancer human tumor ASPS-1 cell line growth inhibition;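 note: spheroids exposed to agents for 7 days after 3 days of growth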;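 for viability, T/C: 100% = DMSO vehicle treated spheroids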
Conditions: second compound 0.03 µM; first compound 0.0949 µM; stronger effect = lower value
ENDPOINT_LABEL: viability, T/C (%)
Give bare numbers, in %.

compound="O=C(c1cc(Cc2n[nH]c(=O)c3ccccc23)ccc1F)N1CCN(C(=O)C2CC2)CC1 + CC[C@@]1(O)C(=O)OCc2c1cc1n(c2=O)Cc2cc3c(CN(C)C)c(O)ccc3nc2-1" endpoint_label="viability, T/C" endpoint_unit=% assay_value=84.9

I have 3 compounds here; please give me viability, T/C for each one.
1. Cc1sc2c(c1C)C(c1ccc(Cl)cc1)=NC(CC(=O)Nc1ccc(O)cc1)c1nnc(C)n1-2 (centres undefined) + CC[C@@]1(O)C(=O)OCc2c1cc1n(c2=O)Cc2cc3c(CN(C)C)c(O)ccc3nc2-1
2. CNCc1ccc(-c2cc(-c3nc(-c4ccc(S(=O)(=O)C(C)C)cc4)cnc3N)on2)cc1 + CC[C@@]1(O)C(=O)OCc2c1cc1n(c2=O)Cc2cc3c(CN(C)C)c(O)ccc3nc2-1
3. Cn1ncnc1[C@H]1c2n[nH]c(=O)c3cc(F)cc(c23)N[C@@H]1c1ccc(F)cc1 + CC[C@@]1(O)C(=O)OCc2c1cc1n(c2=O)Cc2cc3c(CN(C)C)c(O)ccc3nc2-1

Output line:
1. 102
2. 90.5
3. 67.4
